- ASSAY_SYSTEM: human recombinant IL-21 (expressed in E. coli as the mature peptide); residues 30-162 of SEQ ID NO: 1 with an … (human, UniProt Q9HBE4 30-162)
- Sequence (Q9HBE4 other isoform, or with tags, fused parts or gaps): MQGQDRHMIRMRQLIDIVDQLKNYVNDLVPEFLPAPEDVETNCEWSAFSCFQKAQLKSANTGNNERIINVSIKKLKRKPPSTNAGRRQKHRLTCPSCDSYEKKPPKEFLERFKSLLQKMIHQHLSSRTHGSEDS
- ASSAY_NOTES: cell-based or functional assay
READOUT_LABEL: IC50 (nM) in B cell proliferation assay, Donor 2

For reference, reported IC50 (nM) in B cell proliferation assay, Donor 2 for mAb63 (mAb37 variant, light chain R24K) (antibody, human IgG4 S228P, kappa, V domains shown) VH: EVQLVESGGGLVKPGGSLRLSCAASGFIFSSYSMNWVRQAPGKGLEWVSSITSGSYYIHYADSVKGRFTISRDNAKNSLYLQMNSLRAEDTAVYYCVRERGWGYYGMDVWGQGTTVTVSS VL: AIQLTQSPSSLSASVGDRVTITCKASQDIDSALAWYQQKPGKAPKILIHDASSLESGVPSRFSGSGSGTDFTLTISSLQPEDFATYYCQQFNSYPYTFGQGTKLEIKR stands at 0.25 nM
